Where these numbers come from: paper PMC7826789

# Tested on: GRK7;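 note: KINOMEscan scanMAX binding as percent activity remaining versus control; lower means stronger binding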
# Recorded conditions: Compound Concentration (nM):1000
Quantity measured: Percent Control (%)
Response body: numeric value in %, unit text excluded.

Ask: Which Percent Control reading was recorded for the compound Cc1cc(O)cc(C)c1/C=C/c1cncc(C(N)=O)c1 [GW435821X] ?
Result: 100

Ask: Entry under review: `COc1cc(C)c(N(C)C(=O)CN(C)C)cc1Nc1nc(Nc2cccc(F)c2C(N)=O)c2cc[nH]c2n1` . Reported Percent Control?
Result: 70

Ask: Any idea what its Percent Control is? The compound is CN(C)CCNC(=O)Nc1ccc(N(C)c2ccnc(Nc3ccc(CS(C)(=O)=O)cc3)n2)cc1.Cl [GW830900A]
Result: 96

Ask: // Percent Control lookup, key: C[C@@H](Oc1cc(-n2cnc3ccc(OC4CCN(C)CC4)cc32)sc1C(N)=O)c1ccccc1Cl [GSK579289A]
Result: 85

Ask: Any idea what its Percent Control is? The compound is CN(C)c1cc2c(Nc3ccc4c(cnn4Cc4ccccc4)c3)ncnc2cn1 [GW282974X]
Result: 97

Ask: # Percent Control lookup, item Cl.c1ccc(Cc2nc3ccc(Nc4ncnc5ccccc45)cc3[nH]2)cc1 [GR269666A]
Result: 100

Ask: Report Percent Control for NS(=O)(=O)c1ccc(Nc2ncc(-c3ccccc3)o2)cc1 [GW572399X] please.
Result: 100

Ask: Quick one: Percent Control for COc1ccc2[nH]c3c4[nH]c5ccc(OC)cc5c4c4c(c3c2c1)C(=O)NC4=O [GW296115X] ?
Result: 64
